Tested on: cjSSB (Campylobacter jejuni (strain ATCC 33291?))
Assay: fluorescence polarization
Conditions: FP: 20 mM Tris pH 8.0, 30 mM NaCl, 5 mM beta-mercaptoethanol, 0.8 nM fluorescein-ssDNA; temperature not stated; one-site model
Measured Metric: Kd (nM)

Residue String | Assayed Target | Numeric Result
TTATAGGCATATAGGAGTAATTTTCTTGGGCTATGCAGTA [40-mer ssDNA] | cjSSB (Campylobacter jejuni (strain ATCC 33291?)) | 21.4
